DC50 for assorted molecules
Molecular target: CDK2 (Homo sapiens, UniProt P24941)
Construct: High-Throughput Measurement of Cellular Endogenous CDK2; endogenous in cells; host or cells: OVCAR3
Assay: CDK2 HTRF assay: cellular endogenous CDK2 level in OVCAR3 cells
Format: cell-based
Details: 24 hours compound treatment, read-out: DC50 (half maximal degradation concentration of CDK2)

Here's what some known entries look like.
Documented DC50 of O=C1CCC(c2ccc(N3CCN(Cc4cccc(S(=O)(=O)N5CCC(Nc6ncc(C(F)(F)F)c(-c7cnn(CC(F)(F)F)c7)n6)CC5)c4)CC3)c(C(F)(F)F)c2)C(=O)N1 (centres unmarked) : 100 to 500 nM

Looking up Cn1nc(N2CCC(=O)NC2=O)c2ccc(C3CCN(Cc4cccc(S(=O)(=O)N5CC[C@H](Nc6ncc(C(F)(F)F)c(-c7cnn(CC(C)(C)O)c7)n6)[C@H](F)C5)c4)CC3)cc21 (racemic) , I see its DC50 listed as < 100 nM

Others:
Looking up O=C1CCC(NCc2cccc(S(=O)(=O)N3CCC(Nc4ncc(C(F)(F)F)c(-c5cnn(CC(F)(F)F)c5)n4)CC3)c2)C(=O)N1 (centres unmarked) , I found its DC50 recorded as < 100 nM

Record O=C1CCC(c2ccc(N3CC4CCC(C3)N4Cc3cccc(S(=O)(=O)N4CCC(Nc5ncc(C(F)(F)F)c(-c6cnn(CC(F)(F)F)c6)n5)CC4)c3)cc2)C(=O)N1 (centres unmarked) . Reported DC50: < 100 nM

In plain terms, Cn1nc(N2CCC(=O)NC2=O)c2ccc(C3CCN(Cc4cccc(S(=O)(=O)N5CCC(Nc6ncc(C(F)(F)F)c(-c7cnn(CC(F)(F)F)c7)n6)CC5)c4)CC3)cc21 has a documented DC50 of < 100 nM

* * *

Target: CDK2 (Homo sapiens)
Construct: High-Throughput Measurement of Cellular Endogenous CDK2; endogenous in cells; host or cells: OVCAR3
Experiment: CDK2 HTRF assay: cellular endogenous CDK2 level in OVCAR3 cells
Assay type: cell-based
Settings: 24 hours compound treatment, read-out: DC50 (half maximal degradation concentration of CDK2)
Endpoint name: DC50

Solved cases below.
The value of DC50 measured for the molecule CC(Cc1cccc(S(=O)(=O)N2CCC(Nc3ncc(C(F)(F)F)c(-c4cnn(-c5ccccc5F)c4)n3)CC2)c1)N1CCC(c2ccc3c(N4CCC(=O)NC4=O)nn(C)c3c2)CC1 (stereo not drawn) turned out to be < 100 nM

Value of DC50 reported for the molecule O=C1CCC(N2Cc3cc(C4CN(Cc5cccc(S(=O)(=O)N6CCC(Nc7ncc(C(F)(F)F)c(-c8cnn(CC(F)(F)F)c8)n7)CC6)c5)C4)ccc3C2=O)C(=O)N1 (stereo not drawn) is < 100 nM

// below: DC50 requested for another molecule
Recorded result, O=C1CCN(c2ccc(N3CCN(Cc4cccc(S(=O)(=O)N5CCC(Nc6ncc(C(F)(F)F)c(-c7cnn(CC(F)(F)F)c7)n6)CC5)c4)CC3)nc2)C(=O)N1 , DC50: < 100 nM

* * *

Listing of entries alongside the reported IC50.
Target: CDK2 (Homo sapiens)
Construct: High-Throughput Measurement of Cellular Endogenous CDK2; endogenous in cells; host or cells: OVCAR3
Assay: Inhibition of CDK2: phospho-Rb (S807/811) HTRF measurement in OVCAR3 cells
Format: cell-based
Details: 24 h compound treatment, read-out: pRb (nM), IC50 in pRB(S807/811) assay

Check out these entries, answers already filled in.
Just so you know, measured IC50 for O=C1CCC(N2Cc3cc(N4CCC(CN5CCN(c6cccc(S(=O)(=O)N7CCC(Nc8ncc(C(F)(F)F)c(-c9cnn(CC(F)(F)F)c9)n8)CC7)c6)CC5)CC4)ccc3C2=O)C(=O)N1 (centres unmarked) [Example 45] came out at 100 to 500 nM

GET /value?item= O=C1CCC(c2ccc(N3CC4CCC(C3)N4Cc3cccc(S(=O)(=O)N4CCC(Nc5ncc(C(F)(F)F)c(-c6cnn(CC(F)(F)F)c6)n5)CC4)c3)cc2)C(=O)N1 (centres unmarked) [Example 18] &field=IC50 returns < 100 nM

Record summary for Cn1nc(N2CCC(=O)NC2=O)c2ccc(N3CC4CC(C3)N4Cc3cccc(S(=O)(=O)N4CC[C@H](Nc5ncc(C(F)(F)F)c(-c6cnn(CC(F)(F)F)c6)n5)[C@H](F)C4)c3)cc21 [Example 82] : reported IC50 = < 100 nM

// IC50 lookup, compound = O=C1CCC(c2ccc(N3CCN(Cc4cccc(S(=O)(=O)N5CCC(Nc6ncc(C(F)(F)F)c(-c7cnn(CC(F)(F)F)c7)n6)CC5)c4)CC3)c(F)c2)C(=O)N1 (centres unmarked) [Example 14] , result: < 100 nM

Next:
The compound identified as Cn1cc(-c2nc(NC3CCN(S(=O)(=O)c4cccc(CN5CCC(c6ccc7c(N8CCC(=O)NC8=O)nn(C)c7c6)CC5)c4)CC3)ncc2C(F)(F)F)cn1 [Example 33] registered its IC50 at < 100 nM

* * *

Target: CDK2 (Homo sapiens, UniProt P24941)
Construct: High-Throughput Measurement of Cellular Endogenous CDK2; endogenous in cells; host or cells: OVCAR3
Assay: Inhibition of CDK2: phospho-Rb (S807/811) HTRF measurement in OVCAR3 cells
Format: cell-based
Conditions: 24 h compound treatment, read-out: pRb (nM), IC50 in pRB(S807/811) assay
Endpoint name: IC50

These recorded examples may help you get a feel for the data.
Param item: O=C1CCN(c2ccc(N3CCN(Cc4cccc(S(=O)(=O)N5CCC(Nc6ncc(C(F)(F)F)c(-c7cnn(CC(F)(F)F)c7)n6)CC5)c4)CC3)c(F)c2)C(=O)N1 ; param system: CDK2 (Homo sapiens, UniProt P24941); output IC50: < 100 nM

Measured IC50 for this entry O=C1CCC(N2Cc3cc(N4CCN(Cc5cccc(S(=O)(=O)N6CCC(Nc7ncc(C(F)(F)F)c(-c8cnn(CC(F)(F)F)c8)n7)CC6)c5)CC4)c(F)cc3C2=O)C(=O)N1 (centres unmarked) on CDK2 (Homo sapiens, UniProt P24941): < 100 nM

The reported IC50 value, CDK2 (Homo sapiens, UniProt P24941), for Cn1nc(N2CCC(=O)NC2=O)c2ccc(N3CCC(CN4CCN(S(=O)(=O)N5CCC(Nc6ncc(C(F)(F)F)c(-c7cnn(CC(F)(F)F)c7)n6)CC5)CC4)CC3)cc21 reads 100 to 500 nM

Form field, IC50 with CDK2 (Homo sapiens, UniProt P24941), item Cn1nc(N2CCC(=O)NC2=O)c2ccc(C3CCN(CC4CCN(S(=O)(=O)[C@H]5CC[C@H](Nc6ncc(C(F)(F)F)c(-c7cnn(CC(F)(F)F)c7)n6)CC5)CC4)CC3)cc21 : 100 to 500 nM

Proceed to the following item.
Considering Cc1ncsc1-c1ccc([C@H](C)NC(=O)[C@@H]2C[C@@H](O)CN2C(=O)[C@@H](NC(=O)CC2CCN(Cc3cccc(S(=O)(=O)N4CCC(Nc5ncc(C(F)(F)F)c(-c6cnn(CC(F)(F)F)c6)n5)CC4)c3)CC2)C(C)(C)C)cc1 , its IC50 with CDK2 (Homo sapiens, UniProt P24941) was recorded as < 100 nM

* * *

Molecular target: CDK2 (Homo sapiens)
Construct: High-Throughput Measurement of Cellular Endogenous CDK2; endogenous in cells; host or cells: OVCAR3
Experiment: Inhibition of CDK2: phospho-Rb (S807/811) HTRF measurement in OVCAR3 cells
Format: cell-based
Settings: 24 h compound treatment, read-out: pRb (nM), IC50 in pRB(S807/811) assay
Endpoint name: IC50

Per the record, Cn1nc(N2CCC(=O)NC2=O)c2ccc(C3CCN(Cc4cccc(S(=O)(=O)N5CC[C@H](Nc6ncc(C(F)(F)F)c(-c7cnn(CC(C)(C)O)c7)n6)[C@H](F)C5)c4)CC3)cc21 (racemic) has IC50 of < 100 nM

The reported IC50 of the molecule CC(Cc1cccc(S(=O)(=O)N2CCC(Nc3ncc(C(F)(F)F)c(-c4cnn(-c5ccccc5F)c4)n3)CC2)c1)N1CCC(c2ccc3c(N4CCC(=O)NC4=O)nn(C)c3c2)CC1 (stereo not shown) was < 100 nM

Lab note: measured IC50 of O=C1CCN(c2ccc(N3CCN(Cc4cccc(S(=O)(=O)N5CCC(Nc6ncc(C(F)(F)F)c(-c7cnn(-c8ccccc8F)c7)n6)CC5)c4)CC3)cc2)C(=O)N1 was 100 to 500 nM

***
Quick note, IC50 for O=C1CCC(N2C(=O)c3cc(F)c(N4CCN(Cc5cccc(S(=O)(=O)N6CCC(Nc7ncc(Cl)c(-c8cnn(CC(F)(F)F)c8)n7)CC6)c5)CC4)cc3C2=O)C(=O)N1 (stereo not shown) landed at 1000 to 10000 nM

* * *

Listing of recorded IC50 by entry.
Molecular target: CDK2 (Homo sapiens, UniProt P24941)
Construct: High-Throughput Measurement of Cellular Endogenous CDK2; endogenous in cells; host or cells: OVCAR3
Assay: Inhibition of CDK2: phospho-Rb (S807/811) HTRF measurement in OVCAR3 cells
Format: cell-based
Details: 24 h compound treatment, read-out: pRb (nM), IC50 in pRB(S807/811) assay

# IC50 of Cn1nc(N2CCC(=O)NC2=O)c2ccc(C3CCN(Cc4cccc(S(=O)(=O)N5CCC(Nc6ncc(C(F)(F)F)c(-c7cnn(CC(F)(F)F)c7)n6)CC5)c4C(F)(F)F)CC3)cc21 = 500 to 1000 nM

IC50 in this record for O=C1CCC(NS(=O)(=O)N2CCC(Nc3ncc(C(F)(F)F)c(-c4cnn(CC(F)(F)F)c4)n3)CC2)C(=O)N1 (stereo not shown) : 100 to 500 nM

Short answer for Cn1nc(N2CCC(=O)NC2=O)c2cc(F)c(N3CCN(Cc4cccc(S(=O)(=O)N5CC[C@H](Nc6ncc(C(F)(F)F)c(-c7cnn(CC(F)(F)F)c7)n6)[C@H](F)C5)c4)CC3)cc21 : IC50 was < 100 nM

Entry source: patent US20260274853A1
